Data provenance: paper PMC4336329

target: human ether-à-go-go-related gene (hERG) potassium channel (human); assay: primary screen, population patch clamp on CHO cells stably expressing hERG; higher = less effect of the substance;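 also: peak tail current of the secondary pulse compared with the same well before compound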
Sequence (Q12809 whole entry, looked up): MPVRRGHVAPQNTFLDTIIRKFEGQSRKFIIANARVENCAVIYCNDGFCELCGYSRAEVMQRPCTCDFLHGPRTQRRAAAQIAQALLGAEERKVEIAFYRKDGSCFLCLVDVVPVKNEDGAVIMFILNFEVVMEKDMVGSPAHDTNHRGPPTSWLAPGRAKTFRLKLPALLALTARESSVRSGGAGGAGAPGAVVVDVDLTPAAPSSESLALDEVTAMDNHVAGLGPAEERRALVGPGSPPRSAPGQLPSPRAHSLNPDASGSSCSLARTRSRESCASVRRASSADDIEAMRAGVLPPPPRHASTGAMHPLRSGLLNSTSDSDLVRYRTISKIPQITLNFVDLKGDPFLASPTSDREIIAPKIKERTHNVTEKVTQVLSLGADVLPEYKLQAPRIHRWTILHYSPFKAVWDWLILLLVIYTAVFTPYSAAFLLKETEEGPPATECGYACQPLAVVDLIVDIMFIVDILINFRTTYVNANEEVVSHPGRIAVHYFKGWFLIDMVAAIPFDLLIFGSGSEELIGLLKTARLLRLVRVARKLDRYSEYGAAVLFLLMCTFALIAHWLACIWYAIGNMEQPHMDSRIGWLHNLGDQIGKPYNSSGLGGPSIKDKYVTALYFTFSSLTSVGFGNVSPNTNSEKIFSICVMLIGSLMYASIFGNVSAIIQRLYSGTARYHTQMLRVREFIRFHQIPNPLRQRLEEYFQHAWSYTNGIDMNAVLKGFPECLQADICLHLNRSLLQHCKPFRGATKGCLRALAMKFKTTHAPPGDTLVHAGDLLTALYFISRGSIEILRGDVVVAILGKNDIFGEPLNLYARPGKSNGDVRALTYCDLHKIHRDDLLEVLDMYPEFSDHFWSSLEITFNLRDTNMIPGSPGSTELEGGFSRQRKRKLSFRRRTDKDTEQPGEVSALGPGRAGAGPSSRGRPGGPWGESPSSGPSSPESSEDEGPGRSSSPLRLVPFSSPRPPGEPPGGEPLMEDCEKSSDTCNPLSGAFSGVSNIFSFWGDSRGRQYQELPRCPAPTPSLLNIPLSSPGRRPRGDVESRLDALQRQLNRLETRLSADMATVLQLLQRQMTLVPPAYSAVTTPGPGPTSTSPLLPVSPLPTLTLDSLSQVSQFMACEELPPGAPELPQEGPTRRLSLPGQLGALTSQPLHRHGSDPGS
Screen size: about 310,000 compounds; about 14,000 (4.5%) showed an effect of 50% or more. The effect is printed as a negative number. Only a selection was taken, and strong results are over-represented in it overall.
Catalogue of hERG current change (%, negative = inhibition) at 10uM values
Just the number in %, nothing appended.

Worked examples follow.
CC1=Nn2c(nnc2-c2ccco2)SC1 = -3.87
O=[N+]([O-])c1cc(-c2nc3nc4ccccc4nc3n2CCc2ccccc2)cc([N+](=O)[O-])c1 = 3.97
CCOC(=O)C1(CCOc2ccccc2)CCN(Cc2cccn2-c2ncccn2)CC1 = -76.4
Cc1cccc(C(=O)Nc2ccc(C(=O)Nc3ccc(O)cc3)cc2)c1 = 12.5
CCOc1cc(N2CCOCC2)c(OCC)cc1NC(=O)COC(=O)c1cc(C)cc(C)c1 = -3.29

Incoming: I'm curious: which hERG current change (%, negative = inhibition) at 10uM was measured for COc1ccccc1NC(=O)Nc1cnccn1 tested on human ether-à-go-go-related gene (hERG) potassium channel (human)?;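 also: peak tail current of the secondary pulse compared with the same well before compound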
Outgoing: -1.51

Incoming: Give the reported hERG current change (%, negative = inhibition) at 10uM for O=C(O)c1cc(-c2cccs2)nn1-c1cccc(Cl)c1 (system: human ether-à-go-go-related gene (hERG) potassium channel (human)).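 Also: peak tail current of the secondary pulse compared with the same well before compound.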
Outgoing: 17.8
